tested on: HD-MB03; assay: Antiproliferative activity against human HD-MB03 cells assessed as cell growth inhibition incubated for 72 hrs by resazurin dye based analysis; type: functional
Metric: GI50

- Compound: "CCOC(=O)C(C)N1C(=O)S/C(=C\\c2ccc(O)nc2)C1=O (racemic)"
  Metric: "GI50"
  Reported: "> 100 µM"
- Compound: "CCOC(=O)C(C)N1C(=O)S/C(=C\\c2cc(F)c(O)c(F)c2)C1=O (racemic)"
  Metric: "GI50"
  Reported: "> 100 µM"
- Compound: "CCOC(=O)C(C)N1C(=O)S/C(=C\\c2ccc3[nH]ncc3c2)C1=O (racemic)"
  Metric: "GI50"
  Reported: "28.3 µM"
- Compound: "CC(C(=O)N1CCOCC1)N1C(=O)S/C(=C\\c2ccc(N3CCOCC3)cc2)C1=O (racemic)"
  Metric: "GI50"
  Reported: "> 100 µM"

----------
molecular target: BAG family molecular chaperone regulator 3 (Homo sapiens, UniProt O95817); test: Binding affinity to CM4 sensorchip immobilized glycosylated C-terminal His tagged human BAG3 transfected in HEK293T cells assessed as dissociation constant by SPR analysis
Sequence (O95817 whole entry): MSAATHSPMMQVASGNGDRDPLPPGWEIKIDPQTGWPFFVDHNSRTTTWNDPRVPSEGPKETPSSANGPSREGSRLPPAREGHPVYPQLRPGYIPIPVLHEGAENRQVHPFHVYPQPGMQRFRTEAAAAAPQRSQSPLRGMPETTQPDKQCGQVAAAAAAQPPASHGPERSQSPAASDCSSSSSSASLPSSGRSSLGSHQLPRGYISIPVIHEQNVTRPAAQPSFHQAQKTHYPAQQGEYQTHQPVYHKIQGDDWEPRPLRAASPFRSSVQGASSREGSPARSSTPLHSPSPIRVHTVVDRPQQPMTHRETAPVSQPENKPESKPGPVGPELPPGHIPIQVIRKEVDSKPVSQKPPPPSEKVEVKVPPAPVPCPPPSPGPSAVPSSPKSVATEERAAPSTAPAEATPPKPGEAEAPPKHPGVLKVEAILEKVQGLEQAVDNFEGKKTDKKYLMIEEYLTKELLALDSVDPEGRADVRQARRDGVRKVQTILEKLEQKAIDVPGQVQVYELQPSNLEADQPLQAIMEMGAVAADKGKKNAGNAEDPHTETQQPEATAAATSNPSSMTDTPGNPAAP
pKd: −log10 of the molar value.
Each entry below lists one item and its recorded pKd value.
Metric: pKd

- Compound: "CC(C(=O)N1CCCCC1)N1C(=O)S/C(=C\\c2ccc(O)c(O)c2)C1=O (racemic)"
  Metric: "pKd"
  Reported: 3.82
- Compound: "O=C(CN1C(=O)S/C(=C\\c2ccc(O)c(O)c2)C1=O)N1CCOCC1"
  Metric: "pKd"
  Reported: 3.82
- Compound: "CC(C(=O)N1CCOCC1)N1C(=O)S/C(=C\\c2cccc(O)c2O)C1=O (racemic)"
  Metric: "pKd"
  Reported: 4.35
- Compound: "CCOC(=O)CN1C(=O)S/C(=C\\c2ccc(O)c(O)c2)C1=O"
  Metric: "pKd"
  Reported: 3.63
- Compound: "CCOC(=O)C(C)N1C(=O)S/C(=C\\c2ccc(O)c(O)c2)C1=O (racemic)"
  Metric: "pKd"
  Reported: 3.54
- Compound: "CCOC(=O)C(C)N1C(=O)S/C(=C\\c2ccc3[nH]cnc3c2)C1=O (racemic)"
  Metric: "pKd"
  Reported: 3.70
- Compound: "CCOC(=O)C(C1CC1)N1C(=O)S/C(=C\\c2ccc(O)c(O)c2)C1=O (racemic)"
  Metric: "pKd"
  Reported: 3.69
- Compound: "CCOC(=O)C(c1ccccc1)N1C(=O)S/C(=C\\c2ccc(O)c(O)c2)C1=O (racemic)"
  Metric: "pKd"
  Reported: 3.44

----------
# Lookup of reported GI50 at 72 h keyed by entry
assay: Cytotoxicity against resting human PBMC cells assessed as cell growth inhibition incubated for 72 hrs by MTT assay; type: toxicity, cell-based
Metric: GI50 at 72 h

- Molecule: "CCOC(=O)CN1C(=O)S/C(=C\\c2ccc(O)c(O)c2)C1=O"
  Metric: "GI50 at 72 h"
  Reported: "> 100 µM"
- Molecule: "CC(C(=O)N1CCOCC1)N1C(=O)S/C(=C\\c2cccc(O)c2O)C1=O (racemic)"
  Metric: "GI50 at 72 h"
  Reported: "> 100 µM"

----------
test system: RS4-11; test: Antiproliferative activity against human RS4-11 cells assessed as cell growth inhibition incubated for 72 hrs by resazurin dye based analysis; type: functional
The entries below are paired with their reported GI50.
Metric: GI50 (µM)

- Molecule: "CCOC(=O)C(c1ccccc1)N1C(=O)S/C(=C\\c2ccc(O)c(O)c2)C1=O (racemic)"
  Comparator: "="
  Reported: 9.53
- Molecule: "CCOC(=O)C(C)N1C(=O)S/C(=C\\c2ccc3[nH]cnc3c2)C1=O (racemic)"
  Comparator: ">"
  Reported: 100
- Molecule: "CC(C(=O)N1CCCCC1)N1C(=O)S/C(=C\\c2ccc(O)c(O)c2)C1=O (racemic)"
  Comparator: "="
  Reported: 8.6
- Molecule: "CC(C(=O)N1CCOCC1)N1C(=O)S/C(=C\\c2ccc(N3CCOCC3)cc2)C1=O (racemic)"
  Comparator: ">"
  Reported: 100
- Molecule: "CCOC(=O)C(C1CC1)N1C(=O)S/C(=C\\c2ccc(O)c(O)c2)C1=O (racemic)"
  Comparator: "="
  Reported: 6.83
- Molecule: "CCOC(=O)CN1C(=O)S/C(=C\\c2ccc(O)cc2)C1=O"
  Comparator: ">"
  Reported: 100
- Molecule: "O=C(CN1C(=O)S/C(=C\\c2cc(Cl)c(O)c(Cl)c2)C1=O)N1CCOCC1"
  Comparator: ">"
  Reported: 100
- Molecule: "CCOC(=O)CN1C(=O)S/C(=C\\c2ccc(O)c(O)c2)C1=O"
  Comparator: "="
  Reported: 6.4
- Molecule: "CCOC(=O)CN1C(=O)S/C(=C\\c2ccc(OC)nc2)C1=O"
  Comparator: ">"
  Reported: 100
